Give KIDNEY_TOTAL for every item shown.
species on record: Rattus norvegicus; experiment: Open TG-GATES - Regimen: Single; type: toxicity, organism-based, Sprague-Dawley; set-up: regimen Single, gender Male, age 6 weeks; conditions: in vivo, po, 0 mg/kg, 3 h, tissue Kidney, route gavage, dose level Control
Reply with just the number (in g).

Ask | Which KIDNEY_TOTAL is listed for C[C@H](CS)C(=O)N1CCC[C@H]1C(=O)O ?
Reply | 1.9

Ask | Which KIDNEY_TOTAL is listed for NC(=O)N1c2ccccc2C=Cc2ccccc21 [CARBAMAZEPINE] ?
Reply | 1.9

Ask | Which KIDNEY_TOTAL is listed for CC(=O)Oc1ccccc1C(=O)O ?
Reply | 2

Ask | Which KIDNEY_TOTAL is listed for NC(=O)N/N=C/c1ccc([N+](=O)[O-])o1 ?
Reply | 1.6

Ask | Which KIDNEY_TOTAL is listed for CN(C)CCC=C1c2ccccc2CCc2ccccc21 ?
Reply | 1.7

Ask | Which KIDNEY_TOTAL is listed for O=C(O)c1cc(/N=N/c2ccc(S(=O)(=O)Nc3ccccn3)cc2)ccc1O ?
Reply | 1.9

Ask | Which KIDNEY_TOTAL is listed for O=C(O)c1cn(C2CC2)c2cc(N3CCNCC3)c(F)cc2c1=O ?
Reply | 1.7

Ask | Which KIDNEY_TOTAL is listed for CSc1ccc2c(c1)N(CCC1CCCCN1C)c1ccccc1S2 (configuration not stated) ?
Reply | 2

Ask | Which KIDNEY_TOTAL is listed for Clc1ccccc1CN1CCc2sccc2C1 ?
Reply | 1.9

Ask | Which KIDNEY_TOTAL is listed for CCc1cc(C(N)=S)ccn1 [ETHIONAMIDE] ?
Reply | 2.1

Ask | Which KIDNEY_TOTAL is listed for Cn1c(=O)c2[nH]cnc2n(C)c1=O.O ?
Reply | 2

Ask | Which KIDNEY_TOTAL is listed for COc1ccc(Cc2nccc3cc(OC)c(OC)cc23)cc1OC ?
Reply | 2

====

Give Hb for every item shown.
species: Rattus norvegicus; test: Open TG-GATES - Regimen: Single; format: toxicity, organism-based, Sprague-Dawley; parameters: regimen Single, gender Male, age 6 weeks; details: in vivo, po, 100 mg/kg, 24 h, tissue Blood, route gavage, dose level Low
Reply with just the number (in g/dL).

Ask | Which Hb is listed for CCc1cc(C(N)=S)ccn1 [ETHIONAMIDE] ?
Reply | 14.3

Ask | Which Hb is listed for C[C@H](CS)C(=O)N1CCC[C@H]1C(=O)O ?
Reply | 12.8

Ask | Which Hb is listed for O=C(O)c1cc(/N=N/c2ccc(S(=O)(=O)Nc3ccccn3)cc2)ccc1O ?
Reply | 13.2

Ask | Which Hb is listed for Clc1ccccc1CN1CCc2sccc2C1 ?
Reply | 13.6

Ask | Which Hb is listed for O=C(O)c1cn(C2CC2)c2cc(N3CCNCC3)c(F)cc2c1=O ?
Reply | 13.5

====

organism: Rattus norvegicus; assay: Open TG-GATES - Regimen: Daily Repeat; assay type: toxicity, organism-based, Sprague-Dawley; parameters: regimen Daily Repeat, gender Male, age 6 weeks; conditions: in vivo, po, 0 mg/kg, […], tissue Blood, route gavage, dose level Control, time 14 day
readout: Eos (%)
Reply with just the number (in %).

Ask | Which Eos is listed for CSc1ccc2c(c1)N(CCC1CCCCN1C)c1ccccc1S2 (stereo unspecified) ?
Reply | 0.6

Ask | Which Eos is listed for NC(=O)N/N=C/c1ccc([N+](=O)[O-])o1 ?
Reply | 0.8

Ask | Which Eos is listed for CC(=O)Oc1ccccc1C(=O)O ?
Reply | 0.8

Ask | Which Eos is listed for CCc1cc(C(N)=S)ccn1 [ETHIONAMIDE] ?
Reply | 1

Ask | Which Eos is listed for CN(C)CCC=C1c2ccccc2CCc2ccccc21 ?
Reply | 1

Ask | Which Eos is listed for Clc1ccccc1CN1CCc2sccc2C1 ?
Reply | 0.8

Ask | Which Eos is listed for O=C(O)c1cc(/N=N/c2ccc(S(=O)(=O)Nc3ccccn3)cc2)ccc1O ?
Reply | 1

Ask | Which Eos is listed for COc1ccc2c(c1)c(CC(=O)O)c(C)n2C(=O)c1ccc(Cl)cc1 ?
Reply | 0.6

Ask | Which Eos is listed for NC(=O)N1c2ccccc2C=Cc2ccccc21 [CARBAMAZEPINE] ?
Reply | 1

Ask | Which Eos is listed for O=C(O)c1cn(C2CC2)c2cc(N3CCNCC3)c(F)cc2c1=O ?
Reply | 1

Ask | Which Eos is listed for C[C@H](CS)C(=O)N1CCC[C@H]1C(=O)O ?
Reply | 1

====

organism: Rattus norvegicus; assay: Open TG-GATES - Regimen: Daily Repeat; format: toxicity, organism-based, Sprague-Dawley; set-up: regimen Daily Repeat, gender Male, age 6 weeks; conditions: in vivo, po, 0 mg/kg, 72 h, tissue Blood, route gavage, dose level Control, time 3 day
Give Hb for every item shown.
Reply with just the number (in g/dL).

Ask | Which Hb is listed for Clc1ccccc1CN1CCc2sccc2C1 [TICLOPIDINE] ?
Reply | 13.6

Ask | Which Hb is listed for CN(C)CCC=C1c2ccccc2CCc2ccccc21 [AMITRIPTYLINE] ?
Reply | 13

Ask | Which Hb is listed for NC(=O)N/N=C/c1ccc([N+](=O)[O-])o1 [NITROFURAZONE] ?
Reply | 12.9

Ask | Which Hb is listed for CO[C@H]1/C=C/O[C@@]2(C)Oc3c(C)c(O)c4c(O)c(c(/C=N/N5CCN(C)CC5)c(O)c4c3C2=O)NC(=O)/C(C)=C\C=C\[C@H](C)[C@H](O)[C@@H](C)[C@@H](O)[C@@H](C)[C@H](OC(C)=O)[C@@H]1C [RIFAMPIN] ?
Reply | 13.9

Ask | Which Hb is listed for COc1ccc2c(c1)c(CC(=O)O)c(C)n2C(=O)c1ccc(Cl)cc1 [INDOMETHACIN] ?
Reply | 13.4

Ask | Which Hb is listed for CSc1ccc2c(c1)N(CCC1CCCCN1C)c1ccccc1S2 (centres undefined) [THIORIDAZINE] ?
Reply | 13.7

Ask | Which Hb is listed for C[C@H](CS)C(=O)N1CCC[C@H]1C(=O)O [CAPTOPRIL] ?
Reply | 13.4

Ask | Which Hb is listed for CCc1cc(C(N)=S)ccn1 [ETHIONAMIDE] ?
Reply | 13.2

Ask | Which Hb is listed for COc1ccc(Cc2nccc3cc(OC)c(OC)cc23)cc1OC [PAPAVERINE] ?
Reply | 13.5

====

Give KIDNEY_L for every item shown.
organism: Rattus norvegicus; assay: Open TG-GATES - Regimen: Single; format: toxicity, organism-based, Sprague-Dawley; set-up: regimen Single, gender Male, age 6 weeks; settings: in vivo, po, 0 mg/kg, 9 h, tissue Kidney, route gavage, dose level Control
Reply with just the number (in g).

Ask | Which KIDNEY_L is listed for NC(=O)N1c2ccccc2C=Cc2ccccc21 [CARBAMAZEPINE] ?
Reply | 1

Ask | Which KIDNEY_L is listed for NC(=O)N/N=C/c1ccc([N+](=O)[O-])o1 [NITROFURAZONE] ?
Reply | 0.8

Ask | Which KIDNEY_L is listed for Clc1ccccc1CN1CCc2sccc2C1 [TICLOPIDINE] ?
Reply | 0.9

Ask | Which KIDNEY_L is listed for CC(=O)Oc1ccccc1C(=O)O [ASPIRIN] ?
Reply | 0.9

Ask | Which KIDNEY_L is listed for CN(C)CCC=C1c2ccccc2CCc2ccccc21 [AMITRIPTYLINE] ?
Reply | 0.9

Ask | Which KIDNEY_L is listed for C[C@H](CS)C(=O)N1CCC[C@H]1C(=O)O [CAPTOPRIL] ?
Reply | 1

Ask | Which KIDNEY_L is listed for O=C(O)c1cn(C2CC2)c2cc(N3CCNCC3)c(F)cc2c1=O [CIPROFLOXACIN] ?
Reply | 0.8

Ask | Which KIDNEY_L is listed for Cn1c(=O)c2[nH]cnc2n(C)c1=O.O [THEOPHYLLINE] ?
Reply | 1

Ask | Which KIDNEY_L is listed for CCc1cc(C(N)=S)ccn1 [ETHIONAMIDE] ?
Reply | 1.1

Ask | Which KIDNEY_L is listed for COc1ccc(Cc2nccc3cc(OC)c(OC)cc23)cc1OC [PAPAVERINE] ?
Reply | 0.9

Ask | Which KIDNEY_L is listed for O=C(O)c1cc(/N=N/c2ccc(S(=O)(=O)Nc3ccccn3)cc2)ccc1O [SULFASALAZINE] ?
Reply | 0.9

Ask | Which KIDNEY_L is listed for CSc1ccc2c(c1)N(CCC1CCCCN1C)c1ccccc1S2 (configuration not stated) [THIORIDAZINE] ?
Reply | 0.9

// provenance: ChEMBL document CHEMBL3885861
